Source of measurements: the array DNA melting data of Ke et al. (doi:10.1101/2024.01.08.574731)

measurementDescription: folding enthalpy; higher = less favourable; fluorescence melt of hairpins on a sequencing array, two-state fit
appliedConditions: sodium 0.088 M
observationType: folding enthalpy
Number first, unit second: that is the form wanted.

seqString: GTACCCGAAAGGGGGTAC ((((((....)))..)))
measured: -18.1 kcal/mol
--
seqString: GCTCGCGAAAGCGCAAGC ((((((....)))..)))
measured: -12.4 kcal/mol
--
seqString: GTGAGCGAAAGCTTGCAC ((((((....)))..)))
measured: -7.82 kcal/mol
--
seqString: GATCCAGCTCTGGATC ((((((....))))))
measured: -41.1 kcal/mol
--
seqString: GCCAATGAAAATTGGC ((((((....))))))
measured: -30.7 kcal/mol

Prompt: Give its folding enthalpy value. Item: GTACAAGCGAAAGCTTAC (((..(((....))))))
Completion: -11.2 kcal/mol

Prompt: Using the record for GACTAAGGAAACTTAGCC (.(((((....))))).) , report its folding enthalpy.
Completion: -20.4 kcal/mol

Prompt: What value of folding enthalpy has been reported for the following sequence? GGGTGCGAAAGCATGCCC ((((((....)))..)))
Completion: -15.7 kcal/mol

Prompt: Which folding enthalpy value belongs to GATCGAGGAAACCCGATC (((((.(....).))))) ?
Completion: -33.1 kcal/mol

Prompt: Name the recorded folding enthalpy for GCGGTCGAAAGACACCGC ((((((....)))..))) .
Completion: -24.4 kcal/mol

Prompt: Record request: folding enthalpy value, item CGCGGACTCCTCCGCG ((((((....))))))
Completion: -37.2 kcal/mol

Prompt: Item under review: GATCACGCGGTGATC ((((((...)))))) . Reported folding enthalpy?
Completion: -40.2 kcal/mol

Prompt: Value lookup for folding enthalpy; key = GACGCCGGAAACAGCGCC (.(((.(....).))).)
Completion: -17.8 kcal/mol
